Recorded IC50, one value per entry.
Molecular target: PI3Kδ (Homo sapiens, UniProt O00329)
Construct: made in house
Sequence (O00329 whole entry): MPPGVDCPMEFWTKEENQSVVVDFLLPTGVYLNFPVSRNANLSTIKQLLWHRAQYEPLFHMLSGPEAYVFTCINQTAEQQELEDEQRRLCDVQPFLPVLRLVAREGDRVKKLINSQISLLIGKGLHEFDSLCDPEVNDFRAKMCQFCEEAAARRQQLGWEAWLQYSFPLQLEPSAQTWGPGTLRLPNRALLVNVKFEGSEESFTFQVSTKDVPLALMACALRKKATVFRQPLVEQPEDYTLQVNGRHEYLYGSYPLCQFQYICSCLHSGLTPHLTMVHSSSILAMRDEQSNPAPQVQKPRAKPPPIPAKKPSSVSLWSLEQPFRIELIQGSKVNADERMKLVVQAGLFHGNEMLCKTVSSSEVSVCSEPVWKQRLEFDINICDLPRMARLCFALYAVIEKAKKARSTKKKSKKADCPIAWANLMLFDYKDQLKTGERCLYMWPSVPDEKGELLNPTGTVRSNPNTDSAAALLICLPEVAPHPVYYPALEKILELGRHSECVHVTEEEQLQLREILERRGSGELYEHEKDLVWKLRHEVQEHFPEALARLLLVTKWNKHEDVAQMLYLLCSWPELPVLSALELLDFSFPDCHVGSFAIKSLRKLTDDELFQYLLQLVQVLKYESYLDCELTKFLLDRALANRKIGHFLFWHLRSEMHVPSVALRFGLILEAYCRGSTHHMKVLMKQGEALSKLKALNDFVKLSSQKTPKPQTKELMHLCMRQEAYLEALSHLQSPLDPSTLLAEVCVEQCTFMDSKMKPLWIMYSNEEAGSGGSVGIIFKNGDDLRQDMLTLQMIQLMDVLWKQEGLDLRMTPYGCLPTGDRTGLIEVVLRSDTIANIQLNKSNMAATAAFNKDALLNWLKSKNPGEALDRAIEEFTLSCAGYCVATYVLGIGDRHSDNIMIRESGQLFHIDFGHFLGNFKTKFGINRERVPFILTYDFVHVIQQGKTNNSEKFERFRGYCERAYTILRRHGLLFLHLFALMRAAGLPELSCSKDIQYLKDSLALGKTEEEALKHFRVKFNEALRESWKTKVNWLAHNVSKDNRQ
Sequence (P27986 whole entry partner): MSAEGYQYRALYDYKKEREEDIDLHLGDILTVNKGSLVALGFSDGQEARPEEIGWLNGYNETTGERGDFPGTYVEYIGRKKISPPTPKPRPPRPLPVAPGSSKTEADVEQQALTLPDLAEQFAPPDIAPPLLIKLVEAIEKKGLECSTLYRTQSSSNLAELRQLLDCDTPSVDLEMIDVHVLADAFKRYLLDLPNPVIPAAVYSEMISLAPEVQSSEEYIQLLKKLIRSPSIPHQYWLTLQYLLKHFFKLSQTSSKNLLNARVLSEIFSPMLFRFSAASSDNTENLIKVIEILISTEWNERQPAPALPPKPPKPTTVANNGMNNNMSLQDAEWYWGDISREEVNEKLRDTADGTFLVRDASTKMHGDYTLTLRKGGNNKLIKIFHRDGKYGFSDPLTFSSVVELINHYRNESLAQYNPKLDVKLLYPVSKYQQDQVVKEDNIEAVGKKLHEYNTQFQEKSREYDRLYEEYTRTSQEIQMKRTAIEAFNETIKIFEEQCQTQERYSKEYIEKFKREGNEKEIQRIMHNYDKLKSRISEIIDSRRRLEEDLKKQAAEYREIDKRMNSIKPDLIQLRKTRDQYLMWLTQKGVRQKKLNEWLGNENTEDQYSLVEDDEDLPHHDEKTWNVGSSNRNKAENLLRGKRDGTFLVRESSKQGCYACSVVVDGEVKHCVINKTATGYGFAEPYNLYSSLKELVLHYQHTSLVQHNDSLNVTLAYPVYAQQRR
Assay: Enzymatic activity of PI3K isoforms, TR-FRET assay (PIP3 formation)
Type: biochemical
Conditions: read-out: IC50

Ask | Recorded IC50 for CC(Nc1nc(N)nc(N)c1Cl)c1cc2cccc(Cl)c2c(=O)n1-c1ccccc1 (single isomer, unassigned) [Compound 195a] , please?
Reply | < 1 nM

Ask | And CC(Nc1nc(N)nc(N)c1C#N)c1cc2cccc(Cl)c2c(=O)n1-c1ccccc1 (single isomer, unassigned) [Compound 196a] ?
Reply | < 1 nM

====

Molecular target: PI3Kδ (Homo sapiens, UniProt O00329)
Construct: made in house
Experiment: Enzymatic activity of PI3K isoforms, TR-FRET assay (PIP3 formation)
Format: biochemical
Conditions: PI3Kδ; TR-FRET, 2×Km ATP, 10 μM PIP2; read-out: IC50
pIC50: −log10 of the molar value.
Reported Property: pIC50

{"Molecule": "N#Cc1c(N)nc(N)nc1NC(CC(F)(F)F)c1nc2cccc(Cl)c2c(=O)n1-c1cc(F)cc(F)c1 (single isomer, unassigned) [Compound 165a]", "pIC50": "< 7.30"}
{"Molecule": "Cc1cccc2c(=O)n(-c3cc(F)cc(F)c3)c(C(C)Nc3nc(N)nc(N)c3C#N)nc12 (single isomer, unassigned) [Compound 75a]", "pIC50": "8.00 to 9.00"}

Ask | Entry CC(Nc1nc(N)nc(N)c1C#N)c1nc2cccc(Cl)c2c(=O)n1-c1cccc(C(F)(F)F)c1 (single isomer, unassigned) [Compound 47a] , system PI3Kδ (Homo sapiens, UniProt O00329): what pIC50 was measured?
Reply | 8.00 to 9.00

Ask | Now try CC(C)CC(Nc1nc(N)nc(N)c1C#N)c1nc2cccc(Cl)c2c(=O)n1-c1cccc(F)c1 (single isomer, unassigned) [Compound 168a] .
Reply | 8.00 to 9.00

Ask | Then what about the molecule Cc1ccc(F)c2nc(C(C)Nc3nc(N)nc(N)c3C#N)n(-c3cccc(C#N)c3)c(=O)c12 (single isomer, unassigned) [Compound 64a] ?
Reply | > 9.00

Ask | Next entry: N#Cc1c(N)nc(N)nc1NC(CC(F)(F)F)c1nc2cccc(F)c2c(=O)n1-c1cc(F)cc(F)c1 (single isomer, unassigned) [Compound 166a]
Reply | < 7.30

Ask | Another molecule to look at: CC(Nc1nc(N)nc(N)c1C#N)c1nc2c(Cl)ccc(F)c2c(=O)n1-c1cc(F)cc(F)c1 (single isomer, unassigned) [Compound 67a]
Reply | 8.00 to 9.00

====

Target: PI3Kδ (Homo sapiens, UniProt O00329)
Construct: made in house
Experiment: Enzymatic activity of PI3K isoforms, TR-FRET assay (PIP3 formation)
Type: biochemical
Conditions: PI3Kδ; TR-FRET, 2×Km ATP, 10 μM PIP2; read-out: IC50
pIC50: −log10 of the molar value.
Reported Property: pIC50

Worked set:
{"Molecule": "Cc1c(-n2c(C(C)Nc3nc(N)nc(N)c3C#N)nc3cccc(Cl)c3c2=O)ccc(F)c1F (single isomer, unassigned) [Compound 204a-2]", "Measurement Target": "PI3Kδ (Homo sapiens, UniProt O00329)", "pIC50": "8.00 to 9.00"}
{"Molecule": "CC(Nc1nc(N)nc(N)c1C#N)c1nc2cccc(Cl)c2c(=O)n1-c1ccccc1 (single isomer, unassigned) [Compound 49a]", "Measurement Target": "PI3Kδ (Homo sapiens, UniProt O00329)", "pIC50": "> 9.00"}

# evaluate next
Ask | Please state recorded pIC50 (tested on PI3Kδ (Homo sapiens, UniProt O00329)) of CCC(Nc1nc(N)nc(N)c1C#N)c1nc2c(F)ccc(F)c2c(=O)n1-c1cccc(F)c1 (single isomer, unassigned) [Compound 151a]
Reply | 8.00 to 9.00
